# System: Brassica rapa subsp. oleifera
# assay-method-text: Herbicidal activity against Brassica rapa subsp. oleifera assessed as inhibition of root growth at 10 ug/ml at 28 +/- 1 degC measured after 65 hr by root test
# Type: functional
The entries below are paired with their reported inhibition at 10 µg/mL.
// units = %; emit number, no label

Use the examples below as a reference point.
Record COCCOCOc1cccc(/C(O)=C2\C(=O)CN(C3CC3)C2=O)c1 , field inhibition at 10 µg/mL: 0

Record Cc1ccccc1/C(O)=C1\C(=O)CN(C(C)C)C1=O , field inhibition at 10 µg/mL: 15

Record CCOc1ccc(/C(O)=C2\C(=O)CN(C3CC3)C2=O)cc1 , field inhibition at 10 µg/mL: 0

Record COc1ccc(/C(O)=C2\C(=O)CN(C3CC3)C2=O)cc1OC , field inhibition at 10 µg/mL: 69

Record CCCCCc1ccc(/C(O)=C2\C(=O)CN(C3CC3)C2=O)cc1 , field inhibition at 10 µg/mL: 0

Record COc1ccc(/C(O)=C2\C(=O)CN(C(C)C)C2=O)cc1OC , field inhibition at 10 µg/mL: 24

Record COc1cc(/C(O)=C2\C(=O)CN(C3CC3)C2=O)cc(OC)c1OC , field inhibition at 10 µg/mL: 45

Record Cc1cc(C)cc(/C(O)=C2\C(=O)CN(C(C)(C)C)C2=O)c1 , field inhibition at 10 µg/mL: 41

***
Record Cc1cc(C)cc(/C(O)=C2\C(=O)CN(C3CC3)C2=O)c1 , field inhibition at 10 µg/mL: 70

Record COc1cc(OC)c(/C(O)=C2\C(=O)CN(C(C)C)C2=O)cc1OC , field inhibition at 10 µg/mL: 60

Record COCCOCOc1ccc(/C(O)=C2\C(=O)CN(C3CC3)C2=O)cc1 , field inhibition at 10 µg/mL: 19
